# experimental.target: Transcription factor ETV6/Tyrosine-protein kinase ABL1 (Homo sapiens) (UniProt P00519+P41212)
# Sequence (P00519 whole entry, looked up): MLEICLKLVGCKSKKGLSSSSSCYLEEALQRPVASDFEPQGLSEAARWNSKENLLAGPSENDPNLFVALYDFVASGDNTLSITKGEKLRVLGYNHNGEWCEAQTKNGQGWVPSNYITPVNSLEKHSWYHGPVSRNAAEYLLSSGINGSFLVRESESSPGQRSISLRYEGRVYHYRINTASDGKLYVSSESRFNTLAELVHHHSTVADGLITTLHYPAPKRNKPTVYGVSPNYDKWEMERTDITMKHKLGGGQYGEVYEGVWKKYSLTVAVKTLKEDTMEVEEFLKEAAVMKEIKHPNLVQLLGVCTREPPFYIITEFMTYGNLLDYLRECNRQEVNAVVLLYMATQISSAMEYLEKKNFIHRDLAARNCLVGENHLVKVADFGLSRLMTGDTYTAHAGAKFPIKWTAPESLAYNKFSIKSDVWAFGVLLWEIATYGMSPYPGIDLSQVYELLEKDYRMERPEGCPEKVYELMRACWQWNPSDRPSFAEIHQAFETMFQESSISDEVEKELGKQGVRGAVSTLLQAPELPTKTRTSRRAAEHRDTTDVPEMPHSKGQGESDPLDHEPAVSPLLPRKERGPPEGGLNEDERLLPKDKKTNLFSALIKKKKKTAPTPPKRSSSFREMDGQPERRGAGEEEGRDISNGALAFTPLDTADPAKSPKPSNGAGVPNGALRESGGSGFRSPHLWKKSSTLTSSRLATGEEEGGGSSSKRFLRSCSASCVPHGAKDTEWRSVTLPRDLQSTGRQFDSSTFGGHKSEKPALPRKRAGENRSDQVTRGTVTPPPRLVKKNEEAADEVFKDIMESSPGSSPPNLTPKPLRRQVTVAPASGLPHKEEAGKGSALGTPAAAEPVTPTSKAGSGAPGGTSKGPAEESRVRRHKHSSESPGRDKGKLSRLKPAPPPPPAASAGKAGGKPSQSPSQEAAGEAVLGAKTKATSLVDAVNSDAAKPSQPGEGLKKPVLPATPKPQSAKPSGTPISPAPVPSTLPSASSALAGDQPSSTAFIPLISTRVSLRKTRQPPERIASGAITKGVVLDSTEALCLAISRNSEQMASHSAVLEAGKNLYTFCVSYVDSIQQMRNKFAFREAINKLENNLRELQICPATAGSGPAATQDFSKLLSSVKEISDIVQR
# Sequence (P41212 whole entry, looked up): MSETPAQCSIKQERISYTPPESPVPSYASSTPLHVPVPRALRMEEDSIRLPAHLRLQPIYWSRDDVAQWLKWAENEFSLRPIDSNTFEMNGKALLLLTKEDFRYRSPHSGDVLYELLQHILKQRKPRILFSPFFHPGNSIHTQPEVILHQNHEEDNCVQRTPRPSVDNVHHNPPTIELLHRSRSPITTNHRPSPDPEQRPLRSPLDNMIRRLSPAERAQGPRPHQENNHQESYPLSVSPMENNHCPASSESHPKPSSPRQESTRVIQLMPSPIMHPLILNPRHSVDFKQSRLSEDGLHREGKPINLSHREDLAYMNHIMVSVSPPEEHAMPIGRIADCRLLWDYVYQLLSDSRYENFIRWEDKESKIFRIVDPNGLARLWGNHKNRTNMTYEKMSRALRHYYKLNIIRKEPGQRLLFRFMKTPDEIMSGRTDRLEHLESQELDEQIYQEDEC
# run.parameters: BaF3
# Description: Inhibition of Tel-ABL (unknown origin) expressed in mouse BA/F3 cells assessed as cell growth inhibition after 72 hrs by CellTiter-Glo or CCK-8 assay
measurement.kind: GI50 (nM)

Cc1ccc(Nc2ncc3c(n2)N(C)C(=O)N(c2cc(NC(=O)c4cccc(C(F)(F)F)c4)ccc2C)C3)cc1N: 5
Cc1ccc(NC(=O)c2cccc(C(F)(F)F)c2)cc1N1Cc2cnc(NCCCN3CCOCC3)nc2N(C)C1=O: 9
Cc1ccc(NC(=O)c2cccc(C(F)(F)F)c2)cc1N1Cc2cnc(Nc3ccc(C)c(C(F)(F)F)c3)nc2N(C)C1=O: 185
Cc1cccc(C(=O)Nc2ccc(C)c(N3Cc4cnc(Nc5ccc(C)c(N)c5)nc4N(C)C3=O)c2)c1: 6
Cc1ccc(Nc2ncc(C(=O)Nc3cc(NC(=O)c4cccc(C(F)(F)F)c4)ccc3C)c(N(C)C)n2)cc1N: 1030
CNc1nc(Nc2ccc(C)c(N)c2)ncc1C(=O)Nc1cc(NC(=O)c2ccccc2OC)ccc1C: 5200
CNc1nc(Nc2ccc(C)c(N)c2)ncc1C(=O)Nc1cc(NC(=O)c2ccc(OC)cc2)ccc1C: 1300
Cc1ccc(Nc2ncc3c(n2)N(C)C(=O)N(c2cc(NC(=O)c4cccc(C(F)(F)F)c4)ccc2C)C3)cc1N(C)C: 42

[1] Cc1ccc(Nc2ncc3c(n2)N(C)C(=O)N(c2cc(NC(=O)c4cccc(-c5ccccc5)c4)ccc2C)C3)cc1N
[2] CNc1nc(Nc2ccc(C)c([N+](=O)[O-])c2)ncc1C(=O)Nc1cc(NC(=O)c2cc(OC)c(OC)c(OC)c2)ccc1C
Between the entries labeled 1 and 2 , whose measured GI50 is lower? Which one? Tell me its label.
1

Data provenance is ChEMBL document CHEMBL3779840.
